# Tested Target: hNav1.1 channel (Homo sapiens)
# Construct: expressed in transfected cells
# Method: Blockade of cloned Nav1.1 channels expressed in mammalian cells
# Format: cell-based
# Test Context: tonic block (TP1); read-out: IC50 Tonic block
pIC50: −log10 of the molar value.

>  <Molecule>
CCCNCC(COc1ccccc1C(=O)CCc1ccccc1)OC(=O)CCCC(=O)Nc1ccc(C(=O)O)cc1 (centres unmarked) [Propafenone glutaryl PABA ester, Propafenone (glutaryl-PABA) ester]

>  <pIC50>
3.33

$$$$
>  <Molecule>
CCCNCC(COc1ccccc1C(=O)CCc1ccccc1)OC(=O)CCC(=O)N[C@H](C(=O)O)C(C)C (stereo partly drawn) [Propafenone succinyl valine ester, Propafenone[succinyl-(S)-valine]ester]

>  <pIC50>
3.82

$$$$

---

# Method: Stability in simulated intestinal juice (FaSSIF)
# Format: in vitro ADME
# Test Context: FaSSIF pH 6.5, pancreatin 1%, prodrug 20 μg/mL
Measured Parameter: Simulated intestinal juice (2 h, 37° C.) (FaSSIF) % active drug generated (%)

>  <Molecule>
CCOC(=O)c1ccc(NC(=O)CCCC(=O)OC2=C(CC3CCN(Cc4ccccc4)CC3)Cc3cc(OC)c(OC)cc32)cc1 [Donepezil glutaryl PABA ethyl ester]

>  <Readout Unit>
%

>  <Comparator>
=

>  <Test Result>
2

$$$$
>  <Molecule>
COc1cc2c(cc1OC)C(OC(=O)CCCC(=O)N[C@H](C(N)=O)C(C)C)=C(CC1CCN(Cc3ccccc3)CC1)C2 [Donepezil glutaryl valinamide]

>  <Readout Unit>
%

>  <Comparator>
<

>  <Test Result>
2.0

$$$$
>  <Molecule>
CCCC1CC(C(=O)NC(C(C)Cl)C2OC(SC)C(OC(=O)CCCC(=O)Nc3ccc(C(=O)O)cc3)C(O)C2O)N(C)C1.O=C(O)C(F)(F)F (centres unmarked) [Clindamycin glutaryl PABA ester]

>  <Readout Unit>
%

>  <Comparator>
<

>  <Test Result>
1

$$$$
>  <Molecule>
CCCC1CC(C(=O)NC(C(C)Cl)C2OC(SC)C(OC(=O)CCC(=O)N[C@H](C(=O)O)C(C)C)C(O)C2O)N(C)C1 (some centres unmarked) [Clindamycin succinyl valine ester]

>  <Readout Unit>
%

>  <Comparator>
<

>  <Test Result>
1

$$$$
>  <Molecule>
CCOC(=O)[C@@H](NC(=O)CCCC(=O)OC1=C(CC2CCN(Cc3ccccc3)CC2)Cc2cc(OC)c(OC)cc21)C(C)C [Donepezil glutaryl valine ethyl ester]

>  <Readout Unit>
%

>  <Comparator>
=

>  <Test Result>
11

$$$$

---

Here, each record is paired with measured pIC50 data.
# Tested Target: hNav1.1 channel (Homo sapiens)
# Construct: expressed in transfected cells
# Method: Blockade of cloned Nav1.1 channels expressed in mammalian cells
# Assay type: cell-based
# Test Context: inactivation state block (TP12); read-out: IC50 Inactivated state
pIC50: −log10 of the molar value.
Measured Parameter: pIC50

>  <Compound>
CCCNCC(COc1ccccc1C(=O)CCc1ccccc1)OC(=O)CCCC(=O)Nc1ccc(C(=O)O)cc1 (centres unmarked) [Propafenone glutaryl PABA ester, Propafenone (glutaryl-PABA) ester]

>  <Measured Parameter>
pIC50

>  <Test Result>
4.49

$$$$
>  <Compound>
CCCNCC(COc1ccccc1C(=O)CCc1ccccc1)OC(=O)CCC(=O)N[C@H](C(=O)O)C(C)C (stereo partly drawn) [Propafenone succinyl valine ester, Propafenone[succinyl-(S)-valine]ester]

>  <Measured Parameter>
pIC50

>  <Test Result>
4.43

$$$$
